Recorded values, source patent US20250250357A1.

Target Or Test System: T1, human MSLN protein endogenously expressed on OVCAR3 tumor cells (human, UniProt Q13421 296-598)
T1 construct: whole, on cells; Endogenous target on OVCAR3 cells; kept apart from the recombinant full-length construct; also called mesothelin
T1 sequence (Q13421 other isoform, or with tags, fused parts or gaps): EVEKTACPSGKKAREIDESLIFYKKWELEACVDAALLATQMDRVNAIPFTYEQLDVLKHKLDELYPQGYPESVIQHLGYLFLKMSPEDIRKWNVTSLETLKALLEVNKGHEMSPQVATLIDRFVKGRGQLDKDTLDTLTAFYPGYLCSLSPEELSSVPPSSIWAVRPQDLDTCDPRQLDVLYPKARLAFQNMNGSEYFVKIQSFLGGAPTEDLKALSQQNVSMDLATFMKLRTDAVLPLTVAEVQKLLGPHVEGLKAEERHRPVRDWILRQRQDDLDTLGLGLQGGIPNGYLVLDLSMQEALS
Assay Explanation: FACS on OVCAR3 cells;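 note: flow cytometry binding of test antibodies to cells, 2 h incubation on ice, readout as cell mean fluorescence intensity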
So basically, if Maximum mean fluorescence intensity comes in under 30000 it's TRUE, and if it's 30000 or more it's FALSE.

Here are 5 binders together with their reported answers.
Binder | Class
S009-F7.6.17 (antibody, human IgG1, kappa, V domains shown, human-murine chimeric antibody, human IgG1/kappa constant regions) VH: QVQLQQSGAELARPGASVKMSCKASGYTFTTYTMHWVKQRPGQGLEWIGYISPTGDFTKYNQKFKDKATLTTDKSSNTAFMQLSSLTSEDSAVYYCARWNGTVWFAYWGQGTLVTVSA VL: DIVMTQSQKFMSTSVGDRVTVTCKASQALGTNVAWYQQKPGQSPKVLIYSASYRYSGVPYRFAGGGSGTDFTLTITNVQSEDLAEYFCQQYNNYPLTFGAGTKLELKR | FALSE
S009-F7.69.8 (antibody, human IgG1, kappa, V domains shown, human-murine chimeric antibody, human IgG1/kappa constant regions) VH: EVHLQQSGPELVKPGASVRIPCKASGYTFTDYNMDWVKQSHGKSLEWIGDINPDNGGTIYTQKFKGKATLTVDKSSSTAYMELRSLTSEDTAVYYCARRLHYYGSSGLDYWGQGTTLTVSS VL: DIQMTQSPASLSAYVGETVTITCRASGNIHNYLAWYQQKQGKSPQLLVYNAKTLADGVPSRFSGSGSGTQYSLKINSLQPEDFGSYYCQHFWSTVWTFGGGTKLEIKR | TRUE
S009-F7.30.5 (antibody, human IgG1, kappa, V domains shown, human-murine chimeric antibody, human IgG1/kappa constant regions) VH: QVQLQQPKTELVKPGASVKLSCKASGYIFTTYWMHWVKQRPGQGLEWIGNVNPSNGGTMYNEKFERRATLTVDKSSSTADMQLSSLTSEDSAVYYCVPHYIGSRPGFAYWGQGTLVTVSG VL: DIVMTQSQKFMSTSVGDRVSVTCKASQNVGTNVAWYQHKPGQSPKALLYSASYRYSGVPDRFTGSGSGTDFTLTITNVQSEDLAEYFCQQYNSYPLTFGGGTKLEIKR | FALSE
S009-F7.65.13 (antibody, human IgG1, kappa, V domains shown, human-murine chimeric antibody, human IgG1/kappa constant regions) VH: EVQLQQSGPELVKPGTSVKILCKASGDTFTAYNMDWVKQRHGQSLEWIGDINPNTDSTIYNQKFEGKAILTVDKSSSTAYMELRSLTSEDTAVYYCARRKLGRGYFDYWGQGTTLTVSS VL: QIVLTQSPAIMSASPGEKVTMTCSVNLSVRYIYWYQQKPGSSPRLLIHDTSNLASGVPVRFSGSGSGTSYSLTISRMEAEDAATYYCQQWSSFPYTFGGGTKLEIKR | TRUE
S009-F7.11.11 (antibody, human IgG1, kappa, V domains shown, human-murine chimeric antibody, human IgG1/kappa constant regions) VH: EVQLQQSGPELVKPGASVKIPCKASGYTITDYNMDWVKQSRGKSLEWIGDVFPYNGDSIYNQKFEGRATLTVDKYSSTAYMELRGLTSEDTAVYFCARRKTGTGYFDVWGTGTTVTVSS VL: QLVLTQSPAIMSASPGEKVTLTCSASSSVSSTYLSWYLQKPGSSPKLWIYSTSNLASGVPARFSGSGSGTSYSLTISSMEAEDAASYFCHQWSSYPYTFGGGTKLEIKR | FALSE

Asked: is_below(Maximum mean fluorescence intensity, 30000) for S009-F7.33.24 (antibody, human IgG1, kappa, V domains shown, human-murine chimeric antibody, human IgG1/kappa constant regions) VH: QVQLQQPGTELVKPGASVKLSCKASGYTFTSYWMHWVKQRPGQGLEWIGNVNPSNGGSNYNEKFKNKATLTVDKSSSTADMQLNSLTSEDSAVYYCAPHYIGSRPGFAYWGQGTLVTVSG VL: DIVMTQSQKFMSTSVGDRVSVTCKASQNVGTNIAWYQQKPGQSPKALIYSASYRYSGVPDRFTGSGSGTDFTLTITNVQSEDLAEYFCQQYNSYPLTFGGGTKVEIKR ?
Given back: FALSE

Asked: Again, but for S009-F7.12.13 (antibody, human IgG1, kappa, V domains shown, human-murine chimeric antibody, human IgG1/kappa constant regions) VH: EVQLQQSGPELVKPGASVKIPCKASGYTFTDYNMDWVKQSHGKGLEWIGDINPNTDDTIYNQKFNGKATLTVDKSSSTAYMELRSLTSEDTAVYYCSRRLIGTGYFDVWGTGTTVTVSS VL: QIVLTQSPAIMSASPGEKVTLTCSASSSVISTYLCWYRQKPGSSPELWIYSTSNLASGVPARFSGSGSGTSYSLTISSMEAEDAASYFCHQWSNYPYTFGGGTKLGMKR
Given back: TRUE

Asked: Again, but for S009-F7.53.2 (antibody, human IgG1, kappa, V domains shown, human-murine chimeric antibody, human IgG1/kappa constant regions) VH: EVQLQQSGPELVKPGASVKIPCKTSGYTFTDYNMDWVKQSHGKSLEWIGDINPNTDGAIYNQKFQNKATLTVDKSSSTAYMELRSLTSEDTAVYYCTRRKLGRKFFDYWGQGTTLTVSS VL: QIVLTQSPAIMSASPGEQVTMTCSASSSVGYMNWYQQKPGSSPRLLIYDTSNLASGVPVHFSGSGSGTSYSLTISRMEAAFAATYYCQQWYVYPYTFGGGTKLEIKR
Given back: TRUE

Asked: Again, but for S009-F7.61.21 (antibody, human IgG1, kappa, V domains shown, human-murine chimeric antibody, human IgG1/kappa constant regions) VH: DVQLQQSGPELVEPGASVRIPCKAAGHTFTDYNVDWVKQSHGQSLEWIGDVNPNTDGAIYNQKFEGKATLTVDTSSSTAYMELRSLTSEDTAVYFCARRRLGQGGFDSWGQGTTLTVSS VL: QVVLTQSPAIMSASPGEKVTLTCGASSSLISKYLYWYQQKPGSSPKLWIYSTSNLASGVPARFSGSGSGTSYSLTISSMEAEDAASYFCHQWSSYPYTFGGGTKVEIKR
Given back: TRUE
